Data provenance is the supplement of paper PMC8728848.

Target: Fuc(a1-2)Gal3S(b1-4)GlcNAc
Experiment: glycan array binding signal (z-score within array); higher = stronger binding
Details: glycan notation: IUPAC condensed, linker removed
The entries come from a sample that favours the strongest signals as a whole.
readout.name: glycan array binding signal (z-score)
// response body must contain only the number

Endpoint output: glycan array binding signal (z-score) of Gal 2 (Homo sapiens), P05162 (protein) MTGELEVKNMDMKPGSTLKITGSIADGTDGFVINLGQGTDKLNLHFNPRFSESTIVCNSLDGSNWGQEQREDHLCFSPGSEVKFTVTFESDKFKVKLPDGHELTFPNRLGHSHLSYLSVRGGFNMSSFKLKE . Value?
-0.17
